Where do these numbers come from? They come from patent US6693102B2.

# Test system: rabbit aorta rings
# TEST PROTOCOL: Vasorelaxant action in vitro (phenylephrine-contracted rabbit aorta rings)
# REPORTED CONDITIONS: Oryctolagus cuniculus, phenylephrine contraction, 37° C., 0.1% DMSO
TEST READOUT: IC50

{"COMPOUND STRING": "Nc1nc(-c2nn(Cc3ccccc3F)c3ncccc23)nc(N)c1-c1ccncc1", "IC50": "1210 nM"}

Please find the next compound below.
input: What value of IC50 on rabbit aorta rings does "Nc1nc(-c2nn(Cc3ccccc3F)c3ncccc23)ncc1-c1ccncc1" have?
output: 660 nM
